- measuredOn: MD2 (myeloid differentiation protein 2; rhMD2) (Homo sapiens, UniProt Q9Y6Y9)
- Construct: gene LY96; recombinant human MD2 (rhMD2)
- Sequence (Q9Y6Y9 19-160): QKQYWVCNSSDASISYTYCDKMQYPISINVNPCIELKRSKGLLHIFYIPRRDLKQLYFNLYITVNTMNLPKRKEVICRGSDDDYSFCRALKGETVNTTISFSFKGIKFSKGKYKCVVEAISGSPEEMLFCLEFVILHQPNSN
- experimentalDetails: ForteBio Octet HTX (called SPR in the paper)
- Type: binding
quantityMeasured: Kd (µM)
Number only, in µM; omit the unit.

Which Kd value belongs to CCCCC/C=C\C/C=C\CCCCCCCC(=O)O ? 54

* * *

- measuredOn: MD2 (myeloid differentiation protein 2; rhMD2) (Homo sapiens, UniProt Q9Y6Y9)
- Construct: gene LY96; recombinant human MD2 (rhMD2)
- experimentalDetails: SPR (ProteOn XPR36); confirmed on ForteBio Octet HTX (KD=[…]) and by biotin-PA ELISA
- Format: binding
quantityMeasured: pKd
Bear in mind: pKd is minus log10 of a mol/L concentration; give just that figure.

Please tell me: pKd of CCCCCCCCCCCCCCCC(=O)O , system MD2 (myeloid differentiation protein 2; rhMD2) (Homo sapiens, UniProt Q9Y6Y9)? 4.50
